system: Serine/threonine-protein kinase BRSK2 (Homo sapiens);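 note: mean kinase inhibition reported within the GSK PKIS dataset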
Sequence (whole entry): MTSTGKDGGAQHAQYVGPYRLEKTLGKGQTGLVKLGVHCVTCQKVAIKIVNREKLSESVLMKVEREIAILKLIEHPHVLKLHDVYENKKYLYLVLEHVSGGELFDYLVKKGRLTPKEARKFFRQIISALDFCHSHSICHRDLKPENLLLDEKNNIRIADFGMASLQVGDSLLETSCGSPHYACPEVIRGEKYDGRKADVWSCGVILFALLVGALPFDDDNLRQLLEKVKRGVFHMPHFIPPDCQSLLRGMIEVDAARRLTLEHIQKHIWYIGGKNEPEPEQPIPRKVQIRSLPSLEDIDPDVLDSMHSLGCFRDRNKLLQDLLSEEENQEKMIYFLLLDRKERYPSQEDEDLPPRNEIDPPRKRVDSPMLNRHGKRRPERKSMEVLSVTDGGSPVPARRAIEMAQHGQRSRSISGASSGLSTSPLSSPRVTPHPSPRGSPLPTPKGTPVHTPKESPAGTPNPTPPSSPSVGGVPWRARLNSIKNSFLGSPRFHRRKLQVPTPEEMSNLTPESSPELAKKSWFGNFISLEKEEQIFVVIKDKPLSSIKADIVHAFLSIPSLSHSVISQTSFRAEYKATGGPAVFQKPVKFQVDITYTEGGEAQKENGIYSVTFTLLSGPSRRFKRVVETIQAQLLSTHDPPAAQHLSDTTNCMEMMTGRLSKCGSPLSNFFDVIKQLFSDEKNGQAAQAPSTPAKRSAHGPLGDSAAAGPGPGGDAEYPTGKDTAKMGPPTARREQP
measurementConditions: at 1 µM
testReadout: inhibition (%)
Give bare numbers, in %.

Please report inhibition for every entry that follows.
1. NS(=O)(=O)c1ccc(N/N=C2\C(=O)Nc3ccc4ncccc4c32)cc1
2. c1ccc(-c2nc3n(c2-c2ccc4c(c2)OCO4)CCC3)nc1
3. CCN(CC)S(=O)(=O)c1ccc(OC)c(Nc2ncc(-c3ccccc3)o2)c1
4. Fc1ccc(-c2cc(-c3c[nH]nc3-c3ccccn3)ccn2)cc1
5. [O-][S+]1CCN(Cc2ccc(-c3ccc4ncnc(Nc5ccc(OCc6cccc(F)c6)c(Cl)c5)c4c3)o2)CC1
6. NS(=O)(=O)c1ccc(Nc2ncc(-c3ccccc3)o2)cc1
7. O=C(Nc1n[nH]c2cc(-c3ccc(F)cc3)ccc12)C1CC1
8. CNC(=O)c1cncc(/C=C/c2ccccc2Cl)c1

Result:
1. 80.7
2. 4.23
3. 6.08
4. 1.96
5. 4.57
6. 17
7. 33.5
8. 8.91

Please report inhibition for every entry that follows.
1. Fc1cccc(COc2ccc(Nc3ncnc4sc(-c5ccco5)cc34)cc2Cl)c1
2. CS(=O)(=O)CCNCc1ccc(-c2ccc3ncnc(Nc4ccc(OCc5ccccc5)c(C(F)(F)F)c4)c3c2)o1
3. COc1ccc(CNC(=O)c2ccc(-c3cc(-c4nnc(C)o4)ccc3C)cc2)cc1
4. CCOc1ccc2c(-c3ccnc(Nc4cccc(C(F)(F)F)c4)n3)cnn2n1
5. Cc1cccc2c1NC(=O)/C2=N\Nc1ccc(S(N)(=O)=O)cc1

Result:
7.5
4.31
13
2.66
4.49

Please report inhibition for every entry that follows.
1. CC1=C(C(=O)Nc2cc(Cl)c3[nH]ncc3c2)C(c2ccc(C(F)(F)F)cc2)CC(=O)N1 (stereo unspecified)
2. COC(=O)c1sc(-n2cnc3cc(OC)c(OC)cc32)cc1OCc1ccccc1C(F)(F)F

Result:
1: 8.61; 2: 4.63

Please report inhibition for every entry that follows.
1. c1ccc(COc2ccc(Nc3ncnc4ccc(-c5ccco5)cc34)cc2)cc1
2. COc1ccc(-c2cc(-c3c[nH]nc3-c3ccccn3)ccn2)cc1
3. COc1cccc(-n2ncc3c(N/N=C/c4ccc(F)cc4)ncnc32)c1

Result:
1: 1.54; 2: 3.41; 3: 17.8

Sourced from ChEMBL document CHEMBL1961873
